Test system: OVCAR-3
Test: NCI tumour cell line growth inhibition, 48 h
Active and inactive are the calls of the source. No stated cut-off is given here; in the data, active = GI50 up to about 1.1 µM and inactive = higher.
PROPERTY_MEASURED: GI50

Sample answers from the record:
CNC(Cc1ccccc1)c1cccc(OC)c1O (centres undefined): 60.5 µM (inactive)
COc1cc2c(cc1OC)C1(COc3cc(O)c(O)c(O)c3C1=O)C2 (centres undefined): > 50 µM (inactive)
Nc1ccc(S(=O)(=O)Nc2cnc3ccccc3n2)cc1: > 100 µM (inactive)

Continue with the next molecule.
Record request: GI50 value, item CC(C)=CC(=O)OC1C2C(C)=CC(=O)C(O)C2(C)C2C3(O)OCC24C(CC(=O)OC14)C(C)C3O (centres undefined)
0.00624 µM (active)

Provenance of the data: ChEMBL document CHEMBL1201862
